I'd be grateful if you could share measured log10(EC50) for these entries.
Test system: Human immunodeficiency virus 1
method.summary: Antiviral activity against HIV1 NL4-3 infected in human TZM-bl cells assessed as reduction in luciferase gene expression by luminescence assay
Format: functional, organism-based
experimental.conditions: Human immunodeficiency virus 1, NL4-3, TZM-bl
Hi team, quick reminder: these entries are log10 of EC50 (nM).

Requested read-out: log10(EC50). Entry: C=C(C)[C@@H]1CC[C@]2(C(=O)NCCCCCCCCC(=O)NCC#N)CC[C@]3(C)[C@H](CC[C@@H]4[C@@]5(C)CC[C@H](O)C(C)(C)[C@@H]5CC[C@]43C)[C@@H]12 2.64

Now give it for C=C(C)[C@@H]1CC[C@]2(C(=O)NCCCCCCCCNC(=O)[C@@H](NC(=O)OC(C)(C)C)C(C)C)CC[C@]3(C)[C@H](CC[C@@H]4[C@@]5(C)CC[C@H](O)C(C)(C)[C@@H]5CC[C@]43C)[C@@H]12 too. 3.39

Field entry: C=C(C)[C@@H]1CC[C@]2(C(=O)NCCCCCCCNC(=O)[C@H](CCC(N)=O)NC(=O)OC(C)(C)C)CC[C@]3(C)[C@H](CC[C@@H]4[C@@]5(C)CC[C@H](O)C(C)(C)[C@@H]5CC[C@]43C)[C@@H]12 1.60

Another: C=C(C)[C@@H]1CC[C@]2(C(=O)NCCCCCCCCC(=O)N[C@@H](CC(C)C)C(=O)OC)CC[C@]3(C)[C@H](CC[C@@H]4[C@@]5(C)CC[C@H](O)C(C)(C)[C@@H]5CC[C@]43C)[C@@H]12 2.20

Another: C=C(C)[C@@H]1CC[C@]2(C(=O)NCCCCCCCCC(=O)N[C@H](C(=O)OC)[C@@H](C)CC)CC[C@]3(C)[C@H](CC[C@@H]4[C@@]5(C)CC[C@H](O)C(C)(C)[C@@H]5CC[C@]43C)[C@@H]12 2.15

Check C=C(C)[C@@H]1CC[C@]2(C(=O)NCCCCCCCCC(=O)N[C@@H](CCC(N)=O)C(=O)OC)CC[C@]3(C)[C@H](CC[C@@H]4[C@@]5(C)CC[C@H](O)C(C)(C)[C@@H]5CC[C@]43C)[C@@H]12 too. 1.95
